Where these numbers come from: patent US11596639B2

Listing of entries alongside the reported log10 of GI50.
# Tested on: H929 human cancer cell lines
# TEST: Cellular viability / proliferation (Cell TiterGlo, 72 h)
# Assay type: cell-based
# PROTOCOL_CONDITIONS: Homo sapiens, NCI-H929, 72 h, read-out: GI50 on cellular proliferation of H929 human cancer cell lines, H929 cells, 72 h, Cell TiterGlo, 10% FBS
# Method: Cellular Viability of Human Tumor Cell Lines To evaluate compound effect on cellular proliferation, cells were plated at 1,000 cells/well in 96-well tissue culture plates in a total volume of 90 μL medium supplemented with 10% FBS (Sigma, Saint Louis, Mo.). […] Luminescence is measured on a BioTek Cytation 3. Luminescence values are imported into a template in XLFit (Guildford, Surrey, UK) that uses a four-parameter fit to generate an IC50 value for each compound dilution series on the plate.
OUTCOME_MEASURE: log10 of GI50 (log10 of the value in nM)

SMI: Cc1cc(OCCCc2c3n(c4c(-c5c(C)nn(C)c5C)c(Cl)ccc24)[C@H](C)CN(c2cccc4c(C(=O)O)cccc24)C3=O)cc(C)c1Cl
TEST_SYSTEM: H929 human cancer cell lines
log10 of GI50: 2.43
--
SMI: Cc1cc(OCCCc2c3n(c4c(-c5c(C)nn(C)c5C)c(Cl)ccc24)[C@H](C)CN(c2cn(C)c4ccc(C(=O)NCc5ccccn5)cc24)C3=O)cc(C)c1Cl
TEST_SYSTEM: H929 human cancer cell lines
log10 of GI50: 3.15
--
SMI: COCCOC1CCN(Cc2cc(N3C[C@@H](C)n4c(c(CCCOc5cc(C)c(Cl)c(C)c5)c5ccc(Cl)c(-c6c(C)nn(C)c6C)c54)C3=O)c3c(c2)cc(C(=O)O)n3C)CC1
TEST_SYSTEM: H929 human cancer cell lines
log10 of GI50: 2.32
--
SMI: Cc1cc(OCCCc2c3n(c4c(-c5c(C)nn(C)c5C)c(Cl)ccc24)[C@H](C)CN(c2cc(C(C)C)cc4cc(C(N)=O)n(C)c24)C3=O)cc(C)c1Cl
TEST_SYSTEM: H929 human cancer cell lines
log10 of GI50: 2.92
--
SMI: Cc1cc(N2C[C@@H](C)n3c(c(CCCOc4cc(C)c(Cl)c(C)c4)c4ccc(Cl)c(-c5c(C)nn(C)c5C)c43)C2=O)c2c(c1)cc(C(=O)O)n2Cc1cccc(N2CCCCC2)n1
TEST_SYSTEM: H929 human cancer cell lines
log10 of GI50: 3.51
--
SMI: Cc1cc(OCCCc2c3n(c4c(-c5c(C)nn(C)c5C)c(Cl)ccc24)[C@H](C)CN(c2cc(NCCN(C)C)cc4c(C(=O)O)cn(C)c24)C3=O)cc(C)c1Cl
TEST_SYSTEM: H929 human cancer cell lines
log10 of GI50: 3.28
